EXPERIMENTAL SYSTEM: UniProt Q06187
Sequence (Q06187 whole entry): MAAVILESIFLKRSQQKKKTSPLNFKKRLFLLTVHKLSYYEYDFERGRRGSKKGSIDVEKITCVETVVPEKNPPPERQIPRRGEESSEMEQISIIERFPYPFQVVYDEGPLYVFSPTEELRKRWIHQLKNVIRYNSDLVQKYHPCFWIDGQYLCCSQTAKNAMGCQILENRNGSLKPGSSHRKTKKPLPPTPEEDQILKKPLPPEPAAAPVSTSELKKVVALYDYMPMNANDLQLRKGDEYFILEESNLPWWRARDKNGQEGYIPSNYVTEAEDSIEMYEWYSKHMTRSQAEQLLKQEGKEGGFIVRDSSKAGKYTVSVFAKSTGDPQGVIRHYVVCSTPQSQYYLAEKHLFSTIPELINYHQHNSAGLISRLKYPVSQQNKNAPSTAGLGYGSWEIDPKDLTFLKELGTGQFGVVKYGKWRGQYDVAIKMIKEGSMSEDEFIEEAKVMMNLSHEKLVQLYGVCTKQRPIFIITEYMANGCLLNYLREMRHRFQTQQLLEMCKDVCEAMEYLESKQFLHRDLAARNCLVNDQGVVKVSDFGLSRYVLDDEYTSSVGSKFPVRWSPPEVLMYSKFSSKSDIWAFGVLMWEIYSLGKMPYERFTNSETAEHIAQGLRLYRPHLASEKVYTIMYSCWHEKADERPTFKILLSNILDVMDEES
PROTOCOL SUMMARY: Recombinant Human Bruton's Tyrosine Kinase (Btk) Inhibition Assay (HTRF KinEASE-TK)
Type: biochemical
RECORDED CONDITIONS: 20 ng/ml rhBtk, 77 μM ATP (KM), 1 μM TK-Biotin substrate, 90 min; read-out: hBTK IC50
pIC50: −log10 of the molar value.
# Lookup of reported pIC50 keyed by entry

{"columns": ["COMPOUND", "pIC50"],
 "data": [
  ["CN1CCN(Cc2ccc(-c3cc4c(-c5cccc(N6CCOc7cc(C8CC8)ccc7C6=O)c5CO)ccnc4[nH]3)nc2)CC1 [Example I-1]", 8.30],
  ["CN1CCN(Cc2ccc(-c3cc4c(-c5cccc(N6CCOc7cc(C8CC8)ccc7C6=O)c5CO)ccnc4[nH]3)cn2)CC1 [Example B-20]", 8.15],
  ["Cc1c(-c2ncnc3[nH]c(-c4cccc(CN5CCNCC5)c4)cc23)cccc1N1CCOc2cc(C3CC3)ccc2C1=O [Example A-4]", 6.40],
  ["CN1CCC(n2cc(-c3cc4c(-c5cccc(-n6ncc7cc(C8CC8)ccc7c6=O)c5CO)ncnc4[nH]3)cn2)CC1 [Example D-9]", 8.70],
  ["CC(C)(O)CN1CC=C(c2cc3c(-c4cccc(N5CCOc6cc(C7CC7)cc(F)c6C5=O)c4CO)ccnc3[nH]2)CC1 [Example P-23]", 8.85],
  ["Cc1c(-c2ncnc3[nH]c(-c4ccc(C(=O)N5CCCC(C(=O)O)C5)cc4)cc23)cccc1N1CCOc2cc(C3CC3)ccc2C1=O (stereo not drawn) [Example K-13]", 6.88]
]}
